# Test system: T-47D spheroids with HUVEC/MSC, viability
# Measurement notes: Anticancer human tumor T-47D cell line growth inhibition [PI3K];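 note: spheroids exposed to agents for seven days before reading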;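 for viability, T/C: percent of DMSO vehicle control luminescence so 100% = untreated growth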
# Protocol conditions: second compound 0.0316 µM; first compound 3 µM; stronger effect = lower value
# From the text: Combinatorial screen of targeted agents with the PI3K inhibitors inavolisib, alpelisib, duvelisib, and copanlisib in multi-cell type tumor spheroids A high-throughput screen of multi-cell type tumor spheroids was designed to identify active combinations of targeted small molecules and PI3K pathway inhibitors. […] Compounds. […] If the clinical Cmax for an agent had not been determined, the highest concentration tested was 10 microM. […]
Reported property: viability, T/C

[[record]]
molecule = "Cn1cnc2c(F)c(Nc3ccc(Br)cc3Cl)c(C(=O)NOCCO)cc21 + COc1c(OCCCN2CCOCC2)ccc2c3n(c(=NC(=O)c4cnc(N)nc4)nc12)CCN3"
target_entity = "T-47D spheroids with HUVEC/MSC, viability"
endpoint_result = "67.7%"

[[record]]
molecule = "Cn1cnc2c(F)c(Nc3ccc(Br)cc3Cl)c(C(=O)NOCCO)cc21 + CC(Nc1ncnc2nc[nH]c12)c1cc2cccc(Cl)c2c(=O)n1-c1ccccc1"
target_entity = "T-47D spheroids with HUVEC/MSC, viability"
endpoint_result = "77.1%"

[[record]]
molecule = "Cn1cnc2c(F)c(Nc3ccc(Br)cc3Cl)c(C(=O)NOCCO)cc21 + CC(Nc1ccc2c(c1)OCCn1cc(N3C(=O)OCC3C(F)F)nc1-2)C(N)=O"
target_entity = "T-47D spheroids with HUVEC/MSC, viability"
endpoint_result = "86.4%"

[[record]]
molecule = "Cn1cnc2c(F)c(Nc3ccc(Br)cc3Cl)c(C(=O)NOCCO)cc21 + Cc1nc(NC(=O)N2CCCC2C(N)=O)sc1-c1ccnc(C(C)(C)C(F)(F)F)c1"
target_entity = "T-47D spheroids with HUVEC/MSC, viability"
endpoint_result = "105%"


====

# Tested on: T-47D spheroids with HUVEC/MSC, viability
# Measurement notes: Anticancer human tumor T-47D cell line growth inhibition [PI3K];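 note: spheroids exposed to agents for seven days before reading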
# Protocol conditions: curve of first compound; second compound 0.316 µM
A collection of compounds and their measured IC50
Reported property: IC50

[[record]]
compound = "Cn1nccc1Nc1nccc(-c2ccn(C(CO)c3ccc(Cl)c(F)c3)c(=O)c2)n1 (centres undefined) + COc1c(OCCCN2CCOCC2)ccc2c3n(c(=NC(=O)c4cnc(N)nc4)nc12)CCN3"
reported_property = "IC50"
endpoint_result = "< 31.6 nM"

[[record]]
compound = "C#Cc1c(F)ccc2cc(O)cc(-c3ncc4c(N5CC6CCC(C5)N6)nc(OCC56CCCN5CC(F)C6)nc4c3F)c12 (centres undefined) + CC(Nc1ncnc2nc[nH]c12)c1cc2cccc(Cl)c2c(=O)n1-c1ccccc1"
reported_property = "IC50"
endpoint_result = "> 10000 nM"

[[record]]
compound = "CC(=O)c1c(C)c2cnc(Nc3ccc(N4CCNCC4)cn3)nc2n(C2CCCC2)c1=O + Cc1nc(NC(=O)N2CCCC2C(N)=O)sc1-c1ccnc(C(C)(C)C(F)(F)F)c1"
reported_property = "IC50"
endpoint_result = "> 100 nM"

[[record]]
compound = "CCN1CCN(Cc2ccc(Nc3ncc(F)c(-c4cc(F)c5nc(C)n(C(C)C)c5c4)n3)nc2)CC1 + COc1c(OCCCN2CCOCC2)ccc2c3n(c(=NC(=O)c4cnc(N)nc4)nc12)CCN3"
reported_property = "IC50"
endpoint_result = "< 3.16 nM"


====

# Tested on: T-47D spheroids with HUVEC/MSC, viability
# Measurement notes: Anticancer human tumor T-47D cell line growth inhibition [PI3K];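 note: spheroids exposed to agents for seven days before reading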;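 for viability, T/C: percent of DMSO vehicle control luminescence so 100% = untreated growth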
# Protocol conditions: second compound 0.00316 µM; first compound 0.1 µM; stronger effect = lower value
The threshold is 90%. Values of viability, T/C beneath it are tagged rule met; values meeting or exceeding it are tagged rule not met.

[[record]]
compound = "Cn1nccc1Nc1nccc(-c2ccn(C(CO)c3ccc(Cl)c(F)c3)c(=O)c2)n1 (stereo not given) + COc1c(OCCCN2CCOCC2)ccc2c3n(c(=NC(=O)c4cnc(N)nc4)nc12)CCN3"
class = "rule not met"

[[record]]
compound = "Cn1ncnc1[C@H]1c2n[nH]c(=O)c3cc(F)cc(c23)N[C@@H]1c1ccc(F)cc1 + CC(Nc1ccc2c(c1)OCCn1cc(N3C(=O)OCC3C(F)F)nc1-2)C(N)=O"
class = "rule not met"

[[record]]
compound = "CNC(=O)c1ccc(N2C(=S)N(c3ccc(C#N)c(C(F)(F)F)c3)C(=O)C2(C)C)cc1F + CC(Nc1ccc2c(c1)OCCn1cc(N3C(=O)OCC3C(F)F)nc1-2)C(N)=O"
class = "rule not met"

[[record]]
compound = "CC(=O)c1c(C)c2cnc(Nc3ccc(N4CCNCC4)cn3)nc2n(C2CCCC2)c1=O + COc1c(OCCCN2CCOCC2)ccc2c3n(c(=NC(=O)c4cnc(N)nc4)nc12)CCN3"
class = "rule met"

[[record]]
compound = "C#Cc1c(F)ccc2cc(O)cc(-c3ncc4c(N5CC6CCC(C5)N6)nc(OCC56CCCN5CC(F)C6)nc4c3F)c12 (stereo not given) + COc1c(OCCCN2CCOCC2)ccc2c3n(c(=NC(=O)c4cnc(N)nc4)nc12)CCN3"
class = "rule not met"


====

# System: T-47D spheroids with HUVEC/MSC, viability
# Measurement notes: Anticancer human tumor T-47D cell line growth inhibition [PI3K];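 note: spheroids exposed to agents for seven days before reading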
# Protocol conditions: curve of first compound; second compound 0.0316 µM
Documented IC50 across a set of compounds
Reported property: IC50

[[record]]
compound = "CC(C)NCC(C(=O)N1CCN(c2ncnc3c2C(C)CC3O)CC1)c1ccc(Cl)cc1 (stereo unspecified) + Cc1nc(NC(=O)N2CCCC2C(N)=O)sc1-c1ccnc(C(C)(C)C(F)(F)F)c1"
reported_property = "IC50"
endpoint_result = "> 10000 nM"

[[record]]
compound = "CC(C)n1nc(-c2ccc3oc(N)nc3c2)c2c(N)ncnc21 + COc1c(OCCCN2CCOCC2)ccc2c3n(c(=NC(=O)c4cnc(N)nc4)nc12)CCN3"
reported_property = "IC50"
endpoint_result = "3.78 nM"

[[record]]
compound = "Cn1nccc1Nc1nccc(-c2ccn(C(CO)c3ccc(Cl)c(F)c3)c(=O)c2)n1 (stereo unspecified) + CC(Nc1ccc2c(c1)OCCn1cc(N3C(=O)OCC3C(F)F)nc1-2)C(N)=O"
reported_property = "IC50"
endpoint_result = "> 10000 nM"

[[record]]
compound = "C[C@@H](NC(=O)c1ncnc(N)c1Cl)c1ncc(C(=O)Nc2cc(C(F)(F)F)c(Cl)cn2)s1 + CC(Nc1ncnc2nc[nH]c12)c1cc2cccc(Cl)c2c(=O)n1-c1ccccc1"
reported_property = "IC50"
endpoint_result = "> 10000 nM"

[[record]]
compound = "CCN1CCN(Cc2ccc(Nc3ncc(F)c(-c4cc(F)c5nc(C)n(C(C)C)c5c4)n3)nc2)CC1 + Cc1nc(NC(=O)N2CCCC2C(N)=O)sc1-c1ccnc(C(C)(C)C(F)(F)F)c1"
reported_property = "IC50"
endpoint_result = "> 1000 nM"

[[record]]
compound = "CCN1CCN(Cc2ccc(Nc3ncc(F)c(-c4cc(F)c5nc(C)n(C(C)C)c5c4)n3)nc2)CC1 + CC(Nc1ncnc2nc[nH]c12)c1cc2cccc(Cl)c2c(=O)n1-c1ccccc1"
reported_property = "IC50"
endpoint_result = "> 1000 nM"


====

# System: T-47D spheroids with HUVEC/MSC, viability
# Measurement notes: Anticancer human tumor T-47D cell line growth inhibition [PI3K];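 note: spheroids exposed to agents for seven days before reading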;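 for viability, T/C: percent of DMSO vehicle control luminescence so 100% = untreated growth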
# Protocol conditions: second compound 0.1 µM; first compound 0.316 µM; stronger effect = lower value
Mark true (1) for viability, T/C under 90%, false (0) if at or over.

[[record]]
compound = "CNC(=O)c1ccc(N2C(=S)N(c3ccc(C#N)c(C(F)(F)F)c3)C(=O)C2(C)C)cc1F + CC(Nc1ccc2c(c1)OCCn1cc(N3C(=O)OCC3C(F)F)nc1-2)C(N)=O"
class = "false (0)"

[[record]]
compound = "Cn1nccc1Nc1nccc(-c2ccn(C(CO)c3ccc(Cl)c(F)c3)c(=O)c2)n1 (stereo unspecified) + CC(Nc1ncnc2nc[nH]c12)c1cc2cccc(Cl)c2c(=O)n1-c1ccccc1"
class = "false (0)"

[[record]]
compound = "CC1(C)CCC(Nc2ncc(C(F)(F)F)c(-c3c[nH]c4c(P(C)(C)=O)c(C#N)ccc34)n2)CN1 (stereo unspecified) + Cc1nc(NC(=O)N2CCCC2C(N)=O)sc1-c1ccnc(C(C)(C)C(F)(F)F)c1"
class = "true (1)"

[[record]]
compound = "CNC(=O)c1ccc(N2C(=S)N(c3ccc(C#N)c(C(F)(F)F)c3)C(=O)C2(C)C)cc1F + COc1c(OCCCN2CCOCC2)ccc2c3n(c(=NC(=O)c4cnc(N)nc4)nc12)CCN3"
class = "true (1)"

[[record]]
compound = "CCCS(=O)(=O)Nc1ccc(F)c(C(=O)c2c[nH]c3ncc(-c4ccc(Cl)cc4)cc23)c1F + CC(Nc1ncnc2nc[nH]c12)c1cc2cccc(Cl)c2c(=O)n1-c1ccccc1"
class = "false (0)"

[[record]]
compound = "CCN1CCN(Cc2ccc(Nc3ncc(F)c(-c4cc(F)c5nc(C)n(C(C)C)c5c4)n3)nc2)CC1 + Cc1nc(NC(=O)N2CCCC2C(N)=O)sc1-c1ccnc(C(C)(C)C(F)(F)F)c1"
class = "true (1)"

[[record]]
compound = "C#Cc1c(F)ccc2cc(O)cc(-c3ncc4c(N5CC6CCC(C5)N6)nc(OCC56CCCN5CC(F)C6)nc4c3F)c12 (stereo unspecified) + CC(Nc1ncnc2nc[nH]c12)c1cc2cccc(Cl)c2c(=O)n1-c1ccccc1"
class = "false (0)"

[[record]]
compound = "CC1(C)CCC(CN2CCN(c3ccc(C(=O)NS(=O)(=O)c4ccc(NCC5CCOCC5)c([N+](=O)[O-])c4)c(Oc4cnc5[nH]ccc5c4)c3)CC2)=C(c2ccc(Cl)cc2)C1 + COc1c(OCCCN2CCOCC2)ccc2c3n(c(=NC(=O)c4cnc(N)nc4)nc12)CCN3"
class = "true (1)"

[[record]]
compound = "C[C@@H](NC(=O)c1ncnc(N)c1Cl)c1ncc(C(=O)Nc2cc(C(F)(F)F)c(Cl)cn2)s1 + CC(Nc1ncnc2nc[nH]c12)c1cc2cccc(Cl)c2c(=O)n1-c1ccccc1"
class = "true (1)"

